Source of measurements: ChEMBL document CHEMBL1811755

experiment.description: Tmax in mouse plasma at 25 mg/kg, ip
Assay type: ADME, organism-based
Parameters: dose 25 mg/kg, route intraperitoneal
quantity.kind: Tmax

**Query** Need Tmax of CC(C)=CCC/C(C)=C/CC/C(C)=C/CC[C@@](C)(O)CCC1=C(C)C(=O)C(C)=C(C)C1=O , thanks.
**Result** 30 min

###

experiment.description: Cmax in rat plasma at 25 mg/kg, po
Format: ADME, organism-based
Parameters: dose 25 mg/kg, route oral
quantity.kind: Cmax (ng/mL)
Express it in ng/mL; write the number only.

**Query** Need Cmax of CC(C)=CCC/C(C)=C/CC/C(C)=C/CC[C@@](C)(O)CCC1=C(C)C(=O)C(C)=C(C)C1=O [VATIQUINONE] , thanks.
**Result** 248

###

experiment.description: AUCt in rat plasma at 25 mg/kg, po
Assay type: ADME, organism-based
Design: dose 25 mg/kg, route oral
quantity.kind: AUC(0-t)

**Query** Need AUC(0-t) of CC(C)=CCC/C(C)=C/CC/C(C)=C/CC[C@@](C)(O)CCC1=C(C)C(=O)C(C)=C(C)C1=O , thanks.
**Result** 961 ng·h/mL

###

experiment.description: Tmax in rat plasma at 10 mg/kg, po
Format: ADME, organism-based
Design: dose 10 mg/kg, route oral
quantity.kind: Tmax (h)
Express it in h; write the number only.

**Query** Need Tmax of CC(C)=CCC/C(C)=C/CC/C(C)=C/CC[C@@](C)(O)CCC1=C(C)C(=O)C(C)=C(C)C1=O , thanks.
**Result** 3.5

###

experiment.description: Cmax in human plasma at 2 mg/kg, po
Type: ADME, organism-based
Parameters: dose 2 mg/kg, route oral
quantity.kind: Cmax (ng/mL)
Express it in ng/mL; write the number only.

**Query** Need Cmax of CC(C)=CCC/C(C)=C/CC/C(C)=C/CC[C@@](C)(O)CCC1=C(C)C(=O)C(C)=C(C)C1=O [VATIQUINONE] , thanks.
**Result** 167

###

experiment.description: Clearance in dog plasma at 2 mg/kg, iv
Type: ADME, organism-based, Canis lupus familiaris
Design: dose 2 mg/kg, route intravenous
quantity.kind: clearance (mL/min/kg)
Express it in mL/min/kg; write the number only.

**Query** Need clearance of CC(C)=CCC/C(C)=C/CC/C(C)=C/CC[C@@](C)(O)CCC1=C(C)C(=O)C(C)=C(C)C1=O [VATIQUINONE] , thanks.
**Result** 9.57

###

experiment.description: Bioavailability in fasted rat plasma at 25 mg/kg, po
Type: ADME, organism-based
quantity.kind: bioavailability (%)
Express it in %; write the number only.

**Query** Need bioavailability of CC(C)=CCC/C(C)=C/CC/C(C)=C/CC[C@@](C)(O)CCC1=C(C)C(=O)C(C)=C(C)C1=O , thanks.
**Result** 4.1

###

experiment.description: AUCt in dog plasma at 10 mg/kg, po
Assay type: ADME, organism-based, Canis lupus familiaris
Set-up: dose 10 mg/kg, route oral
quantity.kind: AUC(0-t) (ng·h/mL)
Express it in ng·h/mL; write the number only.

**Query** Need AUC(0-t) of CC(C)=CCC/C(C)=C/CC/C(C)=C/CC[C@@](C)(O)CCC1=C(C)C(=O)C(C)=C(C)C1=O , thanks.
**Result** 2690

###

experiment.description: Terminal half life in dog plasma at 10 mg/kg, po
Type: ADME, organism-based, Canis lupus familiaris
Set-up: dose 10 mg/kg, route oral
measurement.setup: read-out: beta t1/2 (converted)
quantity.kind: half-life (min)
Express it in min; write the number only.

**Query** Need half-life of CC(C)=CCC/C(C)=C/CC/C(C)=C/CC[C@@](C)(O)CCC1=C(C)C(=O)C(C)=C(C)C1=O , thanks.
**Result** 456

###

experiment.description: Tmax in dog plasma at 10 mg/kg, po
Assay type: ADME, organism-based, Canis lupus familiaris
Parameters: dose 10 mg/kg, route oral
quantity.kind: Tmax (h)
Express it in h; write the number only.

**Query** Need Tmax of CC(C)=CCC/C(C)=C/CC/C(C)=C/CC[C@@](C)(O)CCC1=C(C)C(=O)C(C)=C(C)C1=O , thanks.
**Result** 2.8

###

experiment.description: Volume of distribution at steady state in dog plasma at 2 mg/kg, iv
Format: ADME, organism-based, Canis lupus familiaris
Parameters: dose 2 mg/kg, route intravenous
measurement.setup: read-out: Vdss
quantity.kind: Vd (L/kg)
Express it in L/kg; write the number only.

**Query** Need Vd of CC(C)=CCC/C(C)=C/CC/C(C)=C/CC[C@@](C)(O)CCC1=C(C)C(=O)C(C)=C(C)C1=O , thanks.
**Result** 2.54

###

experiment.description: AUC (infinity) in mouse plasma at 25 mg/kg, ip
Format: ADME, organism-based
Design: time infinity, dose 25 mg/kg, route intraperitoneal
quantity.kind: AUC(0-inf) (ng·h/mL)
Express it in ng·h/mL; write the number only.

**Query** Need AUC(0-inf) of CC(C)=CCC/C(C)=C/CC/C(C)=C/CC[C@@](C)(O)CCC1=C(C)C(=O)C(C)=C(C)C1=O , thanks.
**Result** 5860

###

experiment.description: Plasma concentration in dog at 300 mg/kg/day, po qd for 7 days
Assay type: ADME, organism-based, Canis lupus familiaris
Design: route oral
quantity.kind: concentration at 168 h (ng/mL)
Express it in ng/mL; write the number only.

**Query** Need concentration at 168 h of CC(C)=CCC/C(C)=C/CC/C(C)=C/CC[C@@](C)(O)CCC1=C(C)C(=O)C(C)=C(C)C1=O , thanks.
**Result** 10000

###

experiment.description: Apparent volume of distribution in dog plasma at 2 mg/kg, iv
Format: ADME, organism-based, Canis lupus familiaris
Parameters: dose 2 mg/kg, route intravenous
measurement.setup: read-out: Vz
quantity.kind: Vd (L/kg)
Express it in L/kg; write the number only.

**Query** Need Vd of CC(C)=CCC/C(C)=C/CC/C(C)=C/CC[C@@](C)(O)CCC1=C(C)C(=O)C(C)=C(C)C1=O [VATIQUINONE] , thanks.
**Result** 6.25

###

experiment.description: Terminal half life in rat plasma at 2 mg/kg, iv
Type: ADME, organism-based
Parameters: dose 2 mg/kg, route intravenous
measurement.setup: read-out: beta t1/2 (converted)
quantity.kind: half-life (h)
Express it in h; write the number only.

**Query** Need half-life of CC(C)=CCC/C(C)=C/CC/C(C)=C/CC[C@@](C)(O)CCC1=C(C)C(=O)C(C)=C(C)C1=O [VATIQUINONE] , thanks.
**Result** 3.5

###

experiment.description: Terminal half life in dog plasma at 2 mg/kg, iv
Format: ADME, organism-based, Canis lupus familiaris
Design: dose 2 mg/kg, route intravenous
measurement.setup: read-out: beta t1/2 (converted)
quantity.kind: half-life
# do not omit the unit; it follows the number

**Query** Need half-life of CC(C)=CCC/C(C)=C/CC/C(C)=C/CC[C@@](C)(O)CCC1=C(C)C(=O)C(C)=C(C)C1=O , thanks.
**Result** 7.5 h

###

experiment.description: Tmax in human plasma at 2 mg/kg, po
Format: ADME, organism-based
Parameters: dose 2 mg/kg, route oral
quantity.kind: Tmax (h)
Express it in h; write the number only.

**Query** Need Tmax of CC(C)=CCC/C(C)=C/CC/C(C)=C/CC[C@@](C)(O)CCC1=C(C)C(=O)C(C)=C(C)C1=O , thanks.
**Result** 2

###

experiment.description: Apparent volume of distribution in rat plasma at 2 mg/kg, iv
Type: ADME, organism-based
Parameters: dose 2 mg/kg, route intravenous
measurement.setup: read-out: Vz
quantity.kind: Vd (L/kg)
Express it in L/kg; write the number only.

**Query** Need Vd of CC(C)=CCC/C(C)=C/CC/C(C)=C/CC[C@@](C)(O)CCC1=C(C)C(=O)C(C)=C(C)C1=O , thanks.
**Result** 3.73

###

experiment.description: AUC (infinity) in rat plasma at 10 mg/kg, po
Type: ADME, organism-based
Set-up: time infinity, dose 10 mg/kg, route oral
quantity.kind: AUC(0-inf) (ng·h/mL)
Express it in ng·h/mL; write the number only.

**Query** Need AUC(0-inf) of CC(C)=CCC/C(C)=C/CC/C(C)=C/CC[C@@](C)(O)CCC1=C(C)C(=O)C(C)=C(C)C1=O , thanks.
**Result** 4780

###

experiment.description: Drug level in dog cornea at 300 mg/kg/day, po qd for 7 days
Assay type: ADME, organism-based, Canis lupus familiaris
Design: route oral
measurement.setup: read-out: Drug uptake
quantity.kind: concentration at 168 h (ng/g)
Express it in ng/g; write the number only.

**Query** Need concentration at 168 h of CC(C)=CCC/C(C)=C/CC/C(C)=C/CC[C@@](C)(O)CCC1=C(C)C(=O)C(C)=C(C)C1=O , thanks.
**Result** 755
